B1: TPR t1 (parent)
chain: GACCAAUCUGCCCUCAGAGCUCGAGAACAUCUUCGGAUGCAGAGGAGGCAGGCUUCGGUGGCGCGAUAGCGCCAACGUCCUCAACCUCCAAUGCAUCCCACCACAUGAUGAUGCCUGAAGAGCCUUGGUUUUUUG

Variants of: B1
test-method-notes: polymerase ribozyme fitness, log enrichment relative to wild type (log ratio); higher = more active; in vitro selection for triplet polymerase activity
recorded-endpoint: polymerase ribozyme fitness (log ratio)

{"variant-descriptor": "C56U G110C", "recorded-endpoint": "polymerase ribozyme fitness (log ratio)", "recorded-result": -3.43}
{"variant-descriptor": "A5C C15G G61A C114U", "recorded-endpoint": "polymerase ribozyme fitness (log ratio)", "recorded-result": -6.53}
{"variant-descriptor": "C62G C82U G117C", "recorded-endpoint": "polymerase ribozyme fitness (log ratio)", "recorded-result": -5.97}
{"variant-descriptor": "C13U G48U C73U U130G", "recorded-endpoint": "polymerase ribozyme fitness (log ratio)", "recorded-result": -0.119}
{"variant-descriptor": "A2G G10U A43U C62G C79U", "recorded-endpoint": "polymerase ribozyme fitness (log ratio)", "recorded-result": -3.6}
{"variant-descriptor": "A16G G48A U126G", "recorded-endpoint": "polymerase ribozyme fitness (log ratio)", "recorded-result": -4.19}
{"variant-descriptor": "C49A A121U", "recorded-endpoint": "polymerase ribozyme fitness (log ratio)", "recorded-result": 1.97}
{"variant-descriptor": "C56U C114U", "recorded-endpoint": "polymerase ribozyme fitness (log ratio)", "recorded-result": -1.71}
{"variant-descriptor": "C80U C101U G128A", "recorded-endpoint": "polymerase ribozyme fitness (log ratio)", "recorded-result": -2.13}
{"variant-descriptor": "C64A A66C U109C", "recorded-endpoint": "polymerase ribozyme fitness (log ratio)", "recorded-result": -6.74}
{"variant-descriptor": "C3A G10U U38A C49U C82U G128A U131G", "recorded-endpoint": "polymerase ribozyme fitness (log ratio)", "recorded-result": -1.74}
{"variant-descriptor": "C72A C101A", "recorded-endpoint": "polymerase ribozyme fitness (log ratio)", "recorded-result": -1.15}
{"variant-descriptor": "C8G U14A G58C", "recorded-endpoint": "polymerase ribozyme fitness (log ratio)", "recorded-result": -0.0186}
{"variant-descriptor": "G17C G47A A95U", "recorded-endpoint": "polymerase ribozyme fitness (log ratio)", "recorded-result": -5.58}
{"variant-descriptor": "C22G G45A", "recorded-endpoint": "polymerase ribozyme fitness (log ratio)", "recorded-result": -3.31}
{"variant-descriptor": "U30C C62U U78A U106C A121U", "recorded-endpoint": "polymerase ribozyme fitness (log ratio)", "recorded-result": -3.04}
{"variant-descriptor": "U55G G61U C123A", "recorded-endpoint": "polymerase ribozyme fitness (log ratio)", "recorded-result": 1.22}
{"variant-descriptor": "G52A C70U C86U C94A A100C C101U C114G", "recorded-endpoint": "polymerase ribozyme fitness (log ratio)", "recorded-result": -5.67}
{"variant-descriptor": "C88U G120C", "recorded-endpoint": "polymerase ribozyme fitness (log ratio)", "recorded-result": 0.853}
{"variant-descriptor": "C12G C73G C88G", "recorded-endpoint": "polymerase ribozyme fitness (log ratio)", "recorded-result": -1.78}
{"variant-descriptor": "C11U A74C A111U", "recorded-endpoint": "polymerase ribozyme fitness (log ratio)", "recorded-result": -3.83}
{"variant-descriptor": "A74G A83U U106C", "recorded-endpoint": "polymerase ribozyme fitness (log ratio)", "recorded-result": -0.743}
